Biological target: T1, hCMV gH + gL + UL128 + UL130 + UL131A (5-member complex; HEK293T co-transfectant) (hCMV, UniProt P12824 24-743; P16832 31-278; P16837 1-171; P16772 1-214)
T1 construct: whole, on cells; in the functional rows it stands for the complex on virions or transduced cells of the strain or isolate named in the readout; also called gH/gL/UL128-131A complex; pentameric complex
Assay: cell competition; competitor 2C12-biotin
quantity: Inhibition of binding (%)
All answers are understood in %, so give the number only.

binder	display_unit	Inhibition of binding (%)
8J16 (antibody, V domains shown, human IgG; also called 8J16-biotin) VH: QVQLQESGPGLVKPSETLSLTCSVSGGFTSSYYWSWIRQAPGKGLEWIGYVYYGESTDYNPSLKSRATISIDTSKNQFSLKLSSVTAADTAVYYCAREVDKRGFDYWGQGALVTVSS VL: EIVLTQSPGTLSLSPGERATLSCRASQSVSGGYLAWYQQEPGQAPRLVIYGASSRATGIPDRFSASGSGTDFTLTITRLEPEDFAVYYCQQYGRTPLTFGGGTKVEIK	%	100

Prompt: Recall and state the measured Inhibition of binding (%) for 4N10 (antibody, V domains shown, human IgG; also called 4N10-biotin) VH: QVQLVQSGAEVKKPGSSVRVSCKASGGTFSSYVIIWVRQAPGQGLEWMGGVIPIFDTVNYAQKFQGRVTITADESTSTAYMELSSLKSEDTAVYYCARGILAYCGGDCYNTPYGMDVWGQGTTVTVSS VL: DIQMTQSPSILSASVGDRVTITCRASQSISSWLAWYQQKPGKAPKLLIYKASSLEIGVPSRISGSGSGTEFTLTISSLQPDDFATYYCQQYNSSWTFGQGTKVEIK .
Response: 0

Prompt: Recall and state the measured Inhibition of binding (%) for 7I13 (antibody, V domains shown, human IgG; also called 7113) VH: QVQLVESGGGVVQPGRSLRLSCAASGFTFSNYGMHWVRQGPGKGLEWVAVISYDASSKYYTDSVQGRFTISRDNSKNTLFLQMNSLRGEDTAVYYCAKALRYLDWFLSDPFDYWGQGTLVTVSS VL: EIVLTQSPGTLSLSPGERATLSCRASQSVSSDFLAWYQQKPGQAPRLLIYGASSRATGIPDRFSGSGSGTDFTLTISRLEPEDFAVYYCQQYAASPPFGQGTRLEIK .
Response: 0

Prompt: Recall and state the measured Inhibition of binding (%) for 15D8 (antibody, V domains shown, human IgG; also called 15D8-biotin) VH: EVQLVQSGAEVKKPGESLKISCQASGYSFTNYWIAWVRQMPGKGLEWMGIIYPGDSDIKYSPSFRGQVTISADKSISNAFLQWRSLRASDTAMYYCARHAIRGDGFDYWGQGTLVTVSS VL: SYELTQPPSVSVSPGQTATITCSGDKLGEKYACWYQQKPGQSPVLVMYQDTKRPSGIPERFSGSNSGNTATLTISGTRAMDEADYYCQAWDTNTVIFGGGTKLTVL .
Response: 0

Prompt: Recall and state the measured Inhibition of binding (%) for 4I22 (antibody, human IgG1, V domains shown, fully human IgG1 with unaltered Fc; also called 4I22-biotin; 4122) VH: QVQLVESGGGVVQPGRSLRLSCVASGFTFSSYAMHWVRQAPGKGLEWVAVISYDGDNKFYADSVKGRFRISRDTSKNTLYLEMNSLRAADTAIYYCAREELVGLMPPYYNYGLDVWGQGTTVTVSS VL: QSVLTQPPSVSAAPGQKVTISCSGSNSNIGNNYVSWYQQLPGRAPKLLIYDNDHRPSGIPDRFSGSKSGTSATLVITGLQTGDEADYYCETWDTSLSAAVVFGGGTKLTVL .
Response: 0
